# measured_on: DNA (cytosine-5)-methyltransferase 1 (Homo sapiens)
# Sequence (P26358 whole entry): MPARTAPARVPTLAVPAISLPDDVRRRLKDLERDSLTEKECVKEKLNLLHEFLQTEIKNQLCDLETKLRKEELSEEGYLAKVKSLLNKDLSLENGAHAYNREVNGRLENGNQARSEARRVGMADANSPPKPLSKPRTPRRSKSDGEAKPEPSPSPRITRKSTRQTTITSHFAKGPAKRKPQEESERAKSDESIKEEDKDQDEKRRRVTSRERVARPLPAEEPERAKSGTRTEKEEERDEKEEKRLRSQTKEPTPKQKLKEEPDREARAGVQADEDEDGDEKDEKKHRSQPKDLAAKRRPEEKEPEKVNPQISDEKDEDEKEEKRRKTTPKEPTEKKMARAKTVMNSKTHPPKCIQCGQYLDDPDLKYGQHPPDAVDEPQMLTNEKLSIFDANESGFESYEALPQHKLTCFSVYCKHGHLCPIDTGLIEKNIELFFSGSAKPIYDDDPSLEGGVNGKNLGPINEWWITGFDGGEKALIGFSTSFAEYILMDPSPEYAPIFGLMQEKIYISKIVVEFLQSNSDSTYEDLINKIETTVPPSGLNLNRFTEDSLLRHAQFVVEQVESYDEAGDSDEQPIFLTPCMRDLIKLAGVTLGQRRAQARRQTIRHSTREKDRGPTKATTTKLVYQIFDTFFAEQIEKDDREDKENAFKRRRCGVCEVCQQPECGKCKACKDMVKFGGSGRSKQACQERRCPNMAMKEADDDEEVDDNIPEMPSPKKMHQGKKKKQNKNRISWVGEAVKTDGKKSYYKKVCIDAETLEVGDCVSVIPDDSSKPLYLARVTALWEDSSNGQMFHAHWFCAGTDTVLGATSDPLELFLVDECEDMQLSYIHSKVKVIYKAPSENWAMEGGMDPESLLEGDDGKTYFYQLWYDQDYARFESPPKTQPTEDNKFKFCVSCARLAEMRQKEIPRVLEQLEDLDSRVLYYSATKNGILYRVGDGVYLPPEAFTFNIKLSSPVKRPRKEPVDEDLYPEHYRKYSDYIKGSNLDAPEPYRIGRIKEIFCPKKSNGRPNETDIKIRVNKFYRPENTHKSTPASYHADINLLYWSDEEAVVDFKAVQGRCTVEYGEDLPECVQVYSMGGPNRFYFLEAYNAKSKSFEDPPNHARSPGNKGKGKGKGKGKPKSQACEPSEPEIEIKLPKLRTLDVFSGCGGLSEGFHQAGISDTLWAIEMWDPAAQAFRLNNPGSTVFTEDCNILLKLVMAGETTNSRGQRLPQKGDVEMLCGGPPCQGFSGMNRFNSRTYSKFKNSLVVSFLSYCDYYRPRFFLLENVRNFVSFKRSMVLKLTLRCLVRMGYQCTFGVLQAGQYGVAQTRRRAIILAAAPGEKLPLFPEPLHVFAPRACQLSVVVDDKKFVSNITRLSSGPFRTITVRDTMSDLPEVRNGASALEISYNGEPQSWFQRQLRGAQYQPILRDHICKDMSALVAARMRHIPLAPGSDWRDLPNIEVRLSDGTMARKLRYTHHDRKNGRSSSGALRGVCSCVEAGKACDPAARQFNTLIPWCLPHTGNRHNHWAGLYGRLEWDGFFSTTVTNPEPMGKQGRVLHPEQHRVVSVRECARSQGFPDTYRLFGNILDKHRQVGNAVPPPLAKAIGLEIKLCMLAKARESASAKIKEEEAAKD
pIC50: −log10 of the molar value.
measured_parameter: pIC50

The reported DNA (cytosine-5)-methyltransferase 1 (Homo sapiens) pIC50 of CCCc1cc(C)[nH]c(=O)c1CNC(=O)c1cc(-c2ccc(N3CCN(C(C)C)CC3)nc2)cc2c1cnn2C(C)C is < 4.00

====

# measured_on: Histone-lysine N-methyltransferase KMT5C (Homo sapiens, UniProt Q86Y97)
# Sequence (Q86Y97 whole entry): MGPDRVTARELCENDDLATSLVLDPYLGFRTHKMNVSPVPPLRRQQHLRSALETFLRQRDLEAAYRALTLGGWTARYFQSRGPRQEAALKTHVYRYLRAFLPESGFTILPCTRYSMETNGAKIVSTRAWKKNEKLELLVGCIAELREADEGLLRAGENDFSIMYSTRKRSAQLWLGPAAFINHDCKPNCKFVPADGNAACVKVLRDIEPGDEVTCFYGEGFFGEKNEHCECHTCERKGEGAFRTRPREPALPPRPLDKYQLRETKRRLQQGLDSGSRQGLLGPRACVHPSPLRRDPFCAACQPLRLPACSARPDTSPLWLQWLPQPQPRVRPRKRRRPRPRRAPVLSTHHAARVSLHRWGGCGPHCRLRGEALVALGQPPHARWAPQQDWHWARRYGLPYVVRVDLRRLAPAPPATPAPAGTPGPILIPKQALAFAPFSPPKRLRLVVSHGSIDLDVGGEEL
pIC50: −log10 of the molar value.
measured_parameter: pIC50

The reported Histone-lysine N-methyltransferase KMT5C (Homo sapiens, UniProt Q86Y97) pIC50 of CCCc1cc(C)[nH]c(=O)c1CNC(=O)c1cc(-c2ccc(N3CCN(C(C)C)CC3)nc2)cc2c1cnn2C(C)C is < 4.00
